FYI, the data here is from PubChem BioAssay AID1918948.

I'd appreciate it if you could supply pIC50 values for the items below.
system: K-562 leukemia growth, % test/control; assay: Anticancer human tumor K-562 cell line growth inhibition; conditions: curve of first compound; second compound 1 µM; spheroids with HUVEC and MSC;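 note: spheroids exposed to compounds for 7 days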
Scale note: pIC50 = -log10(concentration in M).

Reported pIC50 for Nc1ccccc1NC(=O)c1ccc(CNC(=O)OCc2cccnc2)cc1 + NC1CCC(NC2CC2c2ccccc2)CC1 : what is it?
6.55

# lookup: pIC50 of CC(C)CC(NC(=O)CNC(=O)c1cc(Cl)ccc1Cl)B1OC(=O)CC(CC(=O)O)(C(=O)O)O1 (centres undefined) + NC1CCC(NC2CC2c2ccccc2)CC1
7.88

What value of measured pIC50 is listed for CC1COCCN1c1cc(-c2ccnn2C)c2ccnc(-c3ccn[nH]3)c2n1 (centres undefined) + NC1CCC(NC2CC2c2ccccc2)CC1 ?
7.94

Entry CCN(c1cc(-c2ccc(CN3CCOCC3)cc2)cc(C(=O)NCc2c(C)cc(C)[nH]c2=O)c1C)C1CCOCC1 + NC1CC1c1ccc(-c2cccc(O)c2)cc1 has what pIC50?
5.75

---

system: K-562 leukemia growth, % test/control; assay: Anticancer human tumor K-562 cell line growth inhibition; details: curve of first compound; second compound 3.16 µM; spheroids with HUVEC and MSC;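 note: spheroids exposed to compounds for 7 days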
Recorded Metric: IC50 (nM)
Number in nM, nothing else.

Give IC50 (K-562 leukemia growth, % test/control) of the following compound: Nc1ccccc1NC(=O)c1ccc(CNC(=O)OCc2cccnc2)cc1 + NC1CC1c1ccc(-c2cccc(O)c2)cc1
152

Param readout = IC50; param system = K-562 leukemia growth, % test/control; param query = Nc1ccn(C2OC(CO)C(O)C2(F)F)c(=O)n1 (configuration not stated) + NC1CC1c1ccc(-c2cccc(O)c2)cc1 ; response: value
6.77

Lab note: need IC50 for O=C(C=Cn1cnc(-c2cc(C(F)(F)F)cc(C(F)(F)F)c2)n1)NNc1cnccn1 + NC1CC1c1ccc(-c2cccc(O)c2)cc1 on K-562 leukemia growth, % test/control, anyone have it?
66.7

---

tested on: K-562 leukemia growth, % test/control; test: Anticancer human tumor K-562 cell line growth inhibition; conditions: second compound 3.16 µM; first compound 0.949 µM; stronger effect = lower value; spheroids with HUVEC and MSC;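 note: spheroids exposed to compounds for 7 days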;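 for viability, T/C: 100% = DMSO vehicle wells and lower values mean fewer viable cells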
Category | rule: reported viability, T/C within range, see group 1: < 4%; group 2: ≥ 4% and < 9%; group 3: ≥ 9%

# bin label for CCN(c1cc(-c2ccc(CN3CCOCC3)cc2)cc(C(=O)NCc2c(C)cc(C)[nH]c2=O)c1C)C1CCOCC1 + NC1CCC(NC2CC2c2ccccc2)CC1
group 3

Please classify: O=C(C=Cc1cccc(S(=O)(=O)Nc2ccccc2)c1)NO + NC1CCC(NC2CC2c2ccccc2)CC1
group 1

Field: class (viability, T/C) — entry: NS(=O)(=O)OCC1CC(n2ccc3c(NC4CCc5ccccc54)ncnc32)CC1O (stereo not given) + NC1CC1c1ccc(-c2cccc(O)c2)cc1
group 2

The entry to classify is NS(=O)(=O)OCC1CC(n2ccc3c(NC4CCc5ccccc54)ncnc32)CC1O (stereo not given) + NC1CCC(NC2CC2c2ccccc2)CC1 ; which class holds it?
group 2

State the class of the compound shown: Nc1ccccc1NC(=O)c1ccc(CNC(=O)OCc2cccnc2)cc1 + NC1CCC(NC2CC2c2ccccc2)CC1
group 2

Dear colleague, I would appreciate it if you could identify the bin for O=C(C=Cc1cccc(S(=O)(=O)Nc2ccccc2)c1)NO + NC1CC1c1ccc(-c2cccc(O)c2)cc1 and reply at your convenience.
group 1

Just checking, what class would you give COc1cc(C2c3cc4c(cc3C(OC3OC5COC(C)OC5C(O)C3O)C3COC(=O)C23)OCO4)cc(OC)c1O (stereo not given) + NC1CCC(NC2CC2c2ccccc2)CC1 here?
group 3

Class label required: Nc1ccccc1NC(=O)c1ccc(CNC(=O)OCc2cccnc2)cc1 + NC1CC1c1ccc(-c2cccc(O)c2)cc1
group 1

Bin this entry: COc1cc(C2c3cc4c(cc3C(OC3OC5COC(C)OC5C(O)C3O)C3COC(=O)C23)OCO4)cc(OC)c1O (stereo not given) + NC1CC1c1ccc(-c2cccc(O)c2)cc1
group 1

Form field 'band' for CCN(c1cc(-c2ccc(CN3CCOCC3)cc2)cc(C(=O)NCc2c(C)cc(C)[nH]c2=O)c1C)C1CCOCC1 + NC1CC1c1ccc(-c2cccc(O)c2)cc1
group 3

---

tested on: K-562 leukemia growth, % test/control; experiment: Anticancer human tumor K-562 cell line growth inhibition; details: second compound 0.1 µM; first compound 3.16 µM; stronger effect = lower value; spheroids with HUVEC and MSC;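 note: spheroids exposed to compounds for 7 days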;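 for viability, T/C: 100% = DMSO vehicle wells and lower values mean fewer viable cells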
Rule: viability, T/C below 80% gives criterion met, anything at or above gives criterion not met.

viability, T/C under 80%? Item: O=C(c1cc(Cc2n[nH]c(=O)c3ccccc23)ccc1F)N1CCN(C(=O)C2CC2)CC1 + NC1CC1c1ccc(-c2cccc(O)c2)cc1
criterion not met

Problem: For the compound CC1(C)CCC(CN2CCN(c3ccc(C(=O)NS(=O)(=O)c4ccc(NCC5CCOCC5)c([N+](=O)[O-])c4)c(Oc4cnc5[nH]ccc5c4)c3)CC2)=C(c2ccc(Cl)cc2)C1 + NC1CC1c1ccc(-c2cccc(O)c2)cc1 , is viability, T/C under 80%?
criterion met

Confirm or reject: viability, T/C of O=C(c1cc(Cc2n[nH]c(=O)c3ccccc23)ccc1F)N1CCN(C(=O)C2CC2)CC1 + NC1CCC(NC2CC2c2ccccc2)CC1 lies strictly below 80%
criterion not met

Just wondering, is viability, T/C of CC1COCCN1c1cc(C2(S(C)(=N)=O)CC2)nc(-c2ccnc3[nH]ccc23)n1 (stereo not given) + NC1CCC(NC2CC2c2ccccc2)CC1 below 80%?
criterion met

Strictly below 80%: is that where viability, T/C of CC(C)c1c(-c2ccccc2)nc2c(C#N)c[nH]n2c1=O + NC1CCC(NC2CC2c2ccccc2)CC1 sits?
criterion not met

Does CC1COCCN1c1cc(C2(S(C)(=N)=O)CC2)nc(-c2ccnc3[nH]ccc23)n1 (stereo not given) + NC1CC1c1ccc(-c2cccc(O)c2)cc1 have viability, T/C strictly under 80%?
criterion met

Below 80% on viability, T/C? Entry CC1(C)CCC(CN2CCN(c3ccc(C(=O)NS(=O)(=O)c4ccc(NCC5CCOCC5)c([N+](=O)[O-])c4)c(Oc4cnc5[nH]ccc5c4)c3)CC2)=C(c2ccc(Cl)cc2)C1 + NC1CCC(NC2CC2c2ccccc2)CC1
criterion not met

Lab log: compare recorded viability, T/C with 80%; is it strictly lower for CC(C)c1c(-c2ccccc2)nc2c(C#N)c[nH]n2c1=O + NC1CC1c1ccc(-c2cccc(O)c2)cc1 ?
criterion not met

Could you please tell me whether viability, T/C recorded for COc1ccc([C@@H](O)c2cc(-c3ncnc4cc(N5CCOCC5)ccc34)c(F)cc2Cl)nn1 + NC1CCC(NC2CC2c2ccccc2)CC1 is less than 80%?
criterion not met

Hello, I'm reviewing records and need to know if viability, T/C of COc1ccc([C@@H](O)c2cc(-c3ncnc4cc(N5CCOCC5)ccc34)c(F)cc2Cl)nn1 + NC1CC1c1ccc(-c2cccc(O)c2)cc1 is below 80%. Could you check?
criterion not met

---

Tested on: K-562 leukemia growth, % test/control
Experiment: Anticancer human tumor K-562 cell line growth inhibition;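 note: spheroids exposed to compounds for 7 days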
Conditions: curve of first compound; second compound 1 µM; spheroids with HUVEC and MSC
Excerpt: Multicellular complex tumor spheroid response to LSD1 Inhibitor Iadademstat in combination with a variety of drugs and investigational agents in selected tumor cell lines The current study was undertaken to assess response to LSD1 inhibitors in combination with standard-of-care drugs and investigational agents in solid tumor complex spheroid models as well as in the K-562 leukemia. […] Compounds. […] If the clinical Cmax for an agent had not been determined, the highest concentration tested was 10 microM. […]
Recorded Metric: pIC50
Just the number, please; pIC50 means minus log10 of the concentration in mol/L.

So what's the measured pIC50 for this one? CC1(C)CCC(CN2CCN(c3ccc(C(=O)NS(=O)(=O)c4ccc(NCC5CCOCC5)c([N+](=O)[O-])c4)c(Oc4cnc5[nH]ccc5c4)c3)CC2)=C(c2ccc(Cl)cc2)C1 + NC1CC1c1ccc(-c2cccc(O)c2)cc1
5.34

What value of pIC50 has been recorded for this entry: CC[C@@]1(O)C(=O)OCc2c1cc1n(c2=O)Cc2cc3c(CN(C)C)c(O)ccc3nc2-1 + NC1CC1c1ccc(-c2cccc(O)c2)cc1
8.27

Look up pIC50: CC1COCCN1c1cc(C2(S(C)(=N)=O)CC2)nc(-c2ccnc3[nH]ccc23)n1 (centres undefined) + NC1CC1c1ccc(-c2cccc(O)c2)cc1
5.82

# input compound: CC(C)CC(NC(=O)CNC(=O)c1cc(Cl)ccc1Cl)B1OC(=O)CC(CC(=O)O)(C(=O)O)O1 (centres undefined) + NC1CC1c1ccc(-c2cccc(O)c2)cc1 ; wanted: its pIC50
8.01

Consider the compound shown here: COc1cc(Nc2ncc3c(n2)-c2ccc(Cl)cc2C(c2c(F)cccc2OC)=NC3)ccc1C(=O)O + NC1CCC(NC2CC2c2ccccc2)CC1 What is its recorded pIC50?
8.49

So what does the record say about pIC50 for O=C(C=Cc1cccc(S(=O)(=O)Nc2ccccc2)c1)NO + NC1CCC(NC2CC2c2ccccc2)CC1 ?
6.37

What value of measured pIC50 is listed for COc1cc(C2c3cc4c(cc3C(OC3OC5COC(C)OC5C(O)C3O)C3COC(=O)C23)OCO4)cc(OC)c1O (centres undefined) + NC1CCC(NC2CC2c2ccccc2)CC1 ?
7.57

# query: pIC50 of entry CC(C)CC(NC(=O)C(Cc1ccccc1)NC(=O)c1cnccn1)B(O)O (centres undefined) + NC1CC1c1ccc(-c2cccc(O)c2)cc1
9.22

Can you look up the measured pIC50 of CC1COCCN1c1cc(C2(S(C)(=N)=O)CC2)nc(-c2ccnc3[nH]ccc23)n1 (centres undefined) + NC1CCC(NC2CC2c2ccccc2)CC1 for me?
6.21
